B1: HHH_rd2_0155 (parent)
chain: PPDDERKKAEKAARSGNEEKAREILERLGYSEDEARELAKRLR

Variants of: B1
Assay: folding stability dG (cDNA display proteolysis); higher = more stable
Settings: PBS, room temperature
measured-attribute: folding stability dG (kcal/mol)

   mutant_name    measured_attribute  unit_tag  value_observed
0         D33H  folding stability dG  kcal/mol            1.86
1         E26V  folding stability dG  kcal/mol            2.61
2         S15Y  folding stability dG  kcal/mol            1.55
3         D33Y  folding stability dG  kcal/mol            1.91
4         L25Q  folding stability dG  kcal/mol           0.444
5         I24K  folding stability dG  kcal/mol           0.671
6         E19I  folding stability dG  kcal/mol            2.05
7         L42R  folding stability dG  kcal/mol           0.996
8         E37Y  folding stability dG  kcal/mol            2.17
9         E18Y  folding stability dG  kcal/mol            2.25
